System: BT-549
Experiment: NCI tumour cell line growth inhibition, 48 h
Calls of active or inactive are those of the source. Rule as the data show it: active = GI50 up to about 1.1 µM and inactive = higher.
outcome-measure: GI50

1) CC(=O)N1N=C(c2ccc3ccccc3c2O)CC1c1ccc(N(C)C)cc1 (centres undefined) | > 100 µM (inactive)
2) COc1ccc(NC(=S)N/N=C(\c2ccccc2)c2ccccn2)cc1 | 4.94 µM (inactive)

Value of GI50 reported for the compound Cn1c([C@H](C#N)c2ncccc2[N+](=O)[O-])nc2ccccc21 is > 100 µM (inactive)

Value of GI50 reported for the compound OCC1OC(n2cnc3c(/C=C(/O)c4ccccc4)ncnc32)C(O)C1O (centres undefined) is 6.08 µM (inactive)

---

Tested on: MOLT-4
Experiment: NCI tumour cell line growth inhibition, 48 h
Calls of active or inactive are those of the source. Cut-off read from the data, not from the text of the source: active = GI50 up to about 1.1 µM and inactive = higher.
Respond with a class label; see 1 (active), -1 (inactive)

See these solved cases before continuing.
1. COc1c(Cl)c2c(c(OC)c1OC)-c1ccc(OC)c(=O)c(Cl)c1C(NC(C)=O)CC2 (configuration not stated) | 1
2. C=C(c1ccccc1)c1ccccc1-c1cc(-c2ccccc2)cc(-c2ccccc2)n1 | -1
3. CC(=N\N=C\c1ccccn1)/C(C)=N/N=C(C)/C(C)=N/N=C(C)/C(C)=N/N=C/c1ccccn1 | -1
4. OCC1OC(n2cnc3c(/C=C(/O)c4ccccc4)ncnc32)C(O)C1O (configuration not stated) | -1
5. COc1cc(C(c2ccc3c(c2)OCO3)C2SCCCS2)cc(OC)c1OC (configuration not stated) | -1
6. COc1ccc(/C=C(\C#N)c2nc3ccccc3c(=O)[nH]2)cc1 | -1

Recorded test call requested for CCC1NC(/N=N/c2ccc([N+](=O)[O-])cc2)(P(=O)(OC(C)C)OC(C)C)OC1=O (configuration not stated)
-1

Recorded test call requested for COc1ccc2c(c1)CC[C@@H]1C2CC[C@]2(C)C(=O)N(C)C(=O)CC12 (some centres not stated)
-1

Recorded test call requested for CC(C)=CC1C(COC(=O)c2ccccc2Cl)C1(C)C (configuration not stated)
-1

Recorded test call requested for CCc1cc(Cc2cc(CC)c(NC(=O)C(=O)Cc3ccccn3)c(CC)c2Cl)c(Cl)c(CC)c1NC(=O)C(=O)Cc1ccccn1
-1

Recorded test call requested for COc1ccc(OC)c(-c2cc(O)c3cc4c(cc3n2)OCO4)c1
-1

Recorded test call requested for Fc1ccc(C2SCc3nc4ccccc4n32)cc1 (configuration not stated)
-1

---

System: ACHN
Assay: NCI tumour cell line growth inhibition, 48 h
Active and inactive are the calls of the source. Cut-off read from the data, not from the text of the source: active = GI50 up to about 1.1 µM and inactive = higher.
Respond with a class label; see active, inactive

See these solved cases before continuing.
1) COC(=O)C1=C(OC(=O)/C(=C/c2ccc(Cl)cc2Cl)c2ccc(Cl)cc2Cl)C(C(=O)OC)[C@@]2(O)[C@@H](C(=O)OC)[C@H](C)C[C@@H]1[C@@H]2C(=O)OC (stereo partly drawn) | inactive
2) CC1(C)OCC(C2OC(=O)C(OCc3ccccc3)=C2OCc2ccccc2)O1 (stereo not drawn) | inactive
3) CCC(=O)NCC1CCCN2CCCCC12 (stereo not drawn) | inactive
4) OC1CC2CCCN(CCc3c1[nH]c1ccccc31)C2 (stereo not drawn) | inactive
5) CC1=C(C(=O)NNC(=O)c2ccccc2O)CC(C(=O)NNC(=O)c2ccccc2O)=C(C)N1 | active
6) C[C@]12CCC3[C@@H](C[C@H]4OC(=O)[C@@]35CCC(=O)C=C45)C1CCC2=O (stereo partly drawn) | inactive
7) CC(C)c1ccc(/C=C2\CSCC3=C2N=C(S)NC3c2ccc(C(C)C)cc2)cc1 (stereo not drawn) | inactive

Here is the next item to consider.
Recorded test call requested for O=C1C(C(O)(C(F)(F)Cl)C(F)(F)Cl)CCC1C(O)(C(F)(F)Cl)C(F)(F)Cl (stereo not drawn)
inactive
